Please provide measured IC50 for the entries that follow.
# Tested on: HBV
# assay.method.text: Anti-HBV assay: HBV DNA in supernatants of HBV-producing cells (HepG2 2.2.15, P5A cell line), immunoaffinity capture, PCR and hybrid-capture detection
# Assay type: cell-based, Hepatitis B virus
# applied.conditions: Hepatitis B virus, HepG2 2.2.15, read-out: Anti-HBV activity, approximate IC50 (50 percent decrease in HBV DNA), HepG2 2.2.15, P5A cell line; table headed Anti-HCMV Activity
Output spec: scalar in nM, unitless text.

[ask] Which IC50 reading was recorded for the molecule OC[C@@H]1C[C@@H](O)[C@H](n2c(Br)nc3cc(Cl)c(Cl)cc32)C1 (relative stereo) ?
[reply] 5000

[ask] Which IC50 value is on record for OC[C@@H]1C[C@H](n2c(Br)nc3cc(Cl)c(Cl)cc32)[C@@H](O)[C@H]1O ?
[reply] 720
